- target: soluble human BACE1 catalytic domain (Homo sapiens (Human))
- protocol.details: BACE1 HTRF FRET Assay
- condition.details: read-out: BACE1 Ki; Ki calculated from IC50 using the Cheng-Prusoff equation
recorded.metric: Ki
Put your answer as a value accompanied by its unit after it.

Consider the worked cases shown below.
smiles.str | value.reported
CC1(C)C(=N)N[C@](C)(c2cc(NC(=O)CC(F)(F)F)cc(F)c2F)CS1(=O)=O | 703 nM
CC1(C)C(=N)N[C@](C)(c2cc(NC(=O)c3ccc(C#N)cn3)cc(F)c2F)CS1(=O)=O | 6 nM
Cc1noc(CC(=O)Nc2ccc(F)c([C@]3(C)CS(=O)(=O)C(C)(C)C(=N)N3)c2)n1 | 3240 nM

Exercise: Returns the measured Ki for the input compound. Input: COc1cnc(C(=O)Nc2cc(F)c(F)c([C@]3(C)CS(=O)(=O)C(C)(C)C(=N)N3)c2)c(F)c1
Key: 3 nM

---

- target: soluble human BACE1 catalytic domain (Homo sapiens (Human), UniProt P56817)
- Sequence (P56817 75-416): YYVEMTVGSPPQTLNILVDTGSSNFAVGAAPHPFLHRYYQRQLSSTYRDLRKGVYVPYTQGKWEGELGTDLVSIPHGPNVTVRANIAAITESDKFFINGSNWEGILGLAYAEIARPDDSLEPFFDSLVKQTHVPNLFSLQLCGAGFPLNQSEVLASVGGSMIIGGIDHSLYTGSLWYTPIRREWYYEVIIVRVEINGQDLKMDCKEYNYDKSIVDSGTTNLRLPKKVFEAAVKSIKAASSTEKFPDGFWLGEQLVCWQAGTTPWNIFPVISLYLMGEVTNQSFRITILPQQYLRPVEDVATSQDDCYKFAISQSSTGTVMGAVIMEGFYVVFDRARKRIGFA
- protocol.details: BACE1 HTRF FRET Assay
- condition.details: read-out: BACE1 Ki
The following molecules are shown together with reported log10 Ki values.
Values are log10 of Ki in µM.

Use these answered entries as a reference point.
molecule | target | log10 Ki
COc1cccc([C@@]2(C)C(=N)N[C@](C)(c3cc(F)ccc3F)CS2(=O)=O)c1 [Example 32e-a] | soluble human BACE1 catalytic domain (Homo sapiens (Human), UniProt P56817) | 0.04
COCC1(COC)C(=N)N[C@](C)(c2sc(-c3cccc(C#N)c3)cc2Cl)CS1(=O)=O [Example 27bt] | soluble human BACE1 catalytic domain (Homo sapiens (Human), UniProt P56817) | -0.87
CC1(C)C(=N)N[C@](C)(c2cc(Nc3noc4cc(F)cnc34)ccc2F)CS1(=O)=O [Example 30b] | soluble human BACE1 catalytic domain (Homo sapiens (Human), UniProt P56817) | -1.66

Exercise: Would you mind telling me what log10 Ki value was observed for CC1(C)C(=N)N[C@](C)(c2sc(-c3cccc(-n4nccn4)c3)cc2Cl)CS1(=O)=O [Example 27u] ?
Key: -1.31

Exercise: Could you tell me which log10 Ki is on file for C[C@]1(CC(F)(F)F)C(=N)N[C@](C)(c2sc(-c3cccc(C#N)c3)cc2F)CS1(=O)=O [Example 27bj-a] ?
Key: -1.45

Exercise: Name the recorded log10 Ki for COc1cccc(-c2ccc3nc([C@]4(C)CS(=O)(=O)C(C)(C)C(=N)N4)sc3c2)c1 [Example 29d] .
Key: 0.45

Exercise: Could you tell me which log10 Ki is on file for CC1(C)C(=N)N[C@](C)(c2sc(-c3cc(F)cc(-c4nnco4)c3)cc2F)CS1(=O)=O [Example 27as] ?
Key: -2.03

---

Below, each of the compounds is paired with its reported log10(Ki) value.
- target: soluble human BACE1 catalytic domain (Homo sapiens (Human))
- protocol.details: BACE1 HTRF FRET Assay
- condition.details: read-out: BACE1 Ki
Quick note: numbers are log10 of Ki, with nM as the unit.

compound | log10(Ki)
CC1(C)C(=N)N[C@](C)(c2cc(-c3cccc(-c4ccno4)c3)cs2)CS1(=O)=O [Example 27aj] | 2.05

Exercise: Any idea what its log10(Ki) is? The compound is C[C@@]1(c2sc(-c3cncc(C#N)c3)cc2F)CS(=O)(=O)[C@@](C)(c2ccccn2)C(=N)N1 [Example 27bq-a]
Key: 2.43

Exercise: // lookup log10(Ki) for COc1cccc(C[C@]2(C)C(=N)N[C@](C)(c3ccc(F)cc3F)CS2(=O)=O)c1 [Example 32i-b]
Key: 3.58

Exercise: Entry under review: CC1(C)C(=N)N[C@](C)(c2sc(-c3ccc4ncnn4c3)cc2Cl)CS1(=O)=O [Example 27q] . Reported log10(Ki)?
Key: 2.47

Exercise: Which log10(Ki) value is on record for C[C@@]1(c2ccc(F)cc2F)CS(=O)(=O)[C@@](C)(c2cccc(OCc3ccccc3)c2)C(=N)N1 [Example 34a] ?
Key: 3.34

Exercise: Could you tell me which log10(Ki) is on file for C[C@@]1(c2cccc(C(F)(F)F)c2)C(=N)N[C@](C)(c2ccc(F)cc2F)CS1(=O)=O [Example 32h-b] ?
Key: 3.33

Exercise: Fill in: log10(Ki) of CC1(C)C(=N)N[C@](C)(c2sc(-c3nnc(-c4ccc(C#N)cc4)o3)cc2F)CS1(=O)=O [Example 27bi] is ___
Key: 1.69
